For each record, write down the corresponding pest or weed control at 125 g/ha.
- Test system: barnyardgrass (Echinochloa crus-galli)
- ASSAY_INFO: Test A preemergence
- Type: in vivo
- CONDITIONS_USED: Echinochloa crus-galli, pre-emergence, 240 h, 125 g ai/ha, preemergence; visual rating after approx. 10 d; 0 to 100 scale where 0 is no effect and 100 is complete control; read-out: Plant response rating, Barnyardgrass
Numbers only, in %.

COMPOUND_STRUCTURE_STRING | pest or weed control at 125 g/ha [%]
CN1C[C@H](c2nccs2)[C@@H](C(=O)Nc2ccccc2F)C1=O | 0
CN1C[C@H](c2cccc(C3CC3)c2)[C@@H](C(=O)Nc2ccccc2F)C1=O | 90
O=C1NC[C@H](c2ccc(C3CC3)cc2)[C@H]1C(=O)Nc1ccccc1F | 70

Pending compound:
Input line: # lookup: pest or weed control at 125 g/ha of `Cc1ccc([C@H]2CN(C)C(=O)[C@@H]2C(=O)Nc2cccc(F)c2F)c(F)c1`
Output line: 90

###

- System: pigweed (Amaranthus retroflexus)
- ASSAY_INFO: Test A preemergence
- Format: in vivo
- CONDITIONS_USED: Preemergence, 500 g ai/ha, visual injury approx. 10 d
MEASURED_QUANTITY: Pigweed plant response rating (0 to 100 scale, 0 is no effect, 100 is complete control)
Numbers only.

COMPOUND | MEASURED_VALUE
COc1c(F)ccc(NC(=O)C2C(=O)NCC2c2cc(F)cc(F)c2)c1F (racemic) | 0

# return Pigweed plant response rating (0 to 100 scale, 0 is no effect, 100 is complete control) for each item in the list
1. O=C1NCC(c2cc(F)cc(C(F)(F)F)c2)C1C(=O)Nc1cccc(F)c1F (stereo not shown)
2. O=C1NCC(c2cc(C(F)(F)F)ccc2F)C1C(=O)Nc1ccccc1F (stereo not shown)
3. O=C1NCC(c2cccc(F)c2F)C1C(=O)Nc1ccccc1F (stereo not shown)

Output line:
1. 70
2. 0
3. 0

###

- System: corn (Zea mays)
- ASSAY_INFO: Test G Post-Emergence Protocol
- Format: in vivo
- CONDITIONS_USED: Zea mays, post-emergence, 312 h, 62.5 g ai/ha, evaluated after 13 days, read-out: Corn damage rating (100=total damage to plant; 0=no damage to plant)
For each record, write down the corresponding plant injury at 62.5 g/ha.
One number for each entry, in %.

COMPOUND | MEASURED_ON | plant injury at 62.5 g/ha [%]
CN1C[C@@H](c2ccc(C(F)(F)F)cc2)[C@H](C(=O)Nc2ncc(Br)cn2)C1=O (racemic) | corn (Zea mays) | 10
CN1C[C@H](c2cccc(C(F)(F)F)c2)[C@@H](C(=O)Nc2cccnc2F)C1=O | corn (Zea mays) | 80
CN1C[C@@H](c2ccc(C(F)(F)F)cc2)[C@H](C(=O)Nc2cccc(F)c2C(F)(F)F)C1=O (racemic) | corn (Zea mays) | 10
CSc1nc(N)cc(NC(=O)[C@@H]2C(=O)N(C)C[C@H]2c2ccc(C(F)(F)F)cc2)n1 (racemic) | corn (Zea mays) | 0
Cc1c(NC(=O)[C@@H]2C(=O)N(C)C[C@H]2c2ccc(C(F)(F)F)cc2)ccc(F)c1F (racemic) | corn (Zea mays) | 30

# return plant injury at 62.5 g/ha for each item in the list
1. CN1C[C@H](c2cccc(C(F)F)c2)[C@@H](C(=O)Nc2ccccc2F)C1=O (racemic)
2. COc1c(Cl)ccc([C@H]2CNC(=O)[C@@H]2C(=O)Nc2cccc(F)n2)c1F (racemic)

Output line:
10
10
